Test system: LOX IMVI
testProtocol: NCI tumour cell line growth inhibition, 48 h
Calls of active or inactive are those of the source. Cut-off read from the data, not from the text of the source: active = GI50 up to about 1.1 µM and inactive = higher.
Provide the reported GI50 of each item.

*Q* Please look at this molecule and report its GI50: c1ccc2c(-c3csc(-c4c[nH]c5ccccc45)n3)c[nH]c2c1
*A* 21.8 µM (inactive)

*Q* Please look at this molecule and report its GI50: O=[N+]([O-])c1ccc(-c2ccc([C@H]3CC(c4cc(F)c(Cl)cc4Cl)=NN3)o2)cc1
*A* 3.63 µM (inactive)

*Q* Please look at this molecule and report its GI50: COc1cccc(NC(=O)CC(=O)N2N=C(n3ccc4ccccc43)CC2c2ccccc2)c1 (configuration not stated)
*A* > 100 µM (inactive)

*Q* Please look at this molecule and report its GI50: COc1cc(OC)c2nc(C)c(CCCl)c(Cl)c2c1
*A* > 100 µM (inactive)

*Q* Please look at this molecule and report its GI50: O=C1/C(=C(/Br)I)c2ccccc2-c2ccccc21
*A* 5.3 µM (inactive)

*Q* Please look at this molecule and report its GI50: COc1cccc(N2C(=O)CS(=O)(=O)C2c2cccc(Oc3ccccc3)c2)c1 (configuration not stated)
*A* 17.1 µM (inactive)

*Q* Please look at this molecule and report its GI50: COC(=O)C1=C(C(=O)OC)C2(OC(C)=O)c3ccccc3-c3ccccc3C12 (configuration not stated)
*A* 5.09 µM (inactive)

*Q* Please look at this molecule and report its GI50: N#Cc1ccc(C2ON=C(c3ccccc3)N2C23CC4CC(CC(C4)C2)C3)cc1 (configuration not stated)
*A* > 10 µM (inactive)

*Q* Please look at this molecule and report its GI50: CC(C)Cc1ccc(C(C)/C=C2\CCC(CN3CCCC3)C2=O)cc1 (configuration not stated)
*A* 2.88 µM (inactive)

*Q* Please look at this molecule and report its GI50: CCc1cn(C2CC(CO)C(CO)S2)c(=O)[nH]c1=O (configuration not stated)
*A* > 100 µM (inactive)

*Q* Please look at this molecule and report its GI50: O=C(O)CCNCC(=O)O
*A* > 100 µM (inactive)

*Q* Please look at this molecule and report its GI50: CC(=O)Nc1cc2cc(N)ccc2oc1=O
*A* > 100 µM (inactive)
